Cited source: patent US20260365671A1

Target: NLRP3 inflammasome (Homo sapiens)
Construct: IL-1beta HTRF
Sequence (Q96P20 whole entry): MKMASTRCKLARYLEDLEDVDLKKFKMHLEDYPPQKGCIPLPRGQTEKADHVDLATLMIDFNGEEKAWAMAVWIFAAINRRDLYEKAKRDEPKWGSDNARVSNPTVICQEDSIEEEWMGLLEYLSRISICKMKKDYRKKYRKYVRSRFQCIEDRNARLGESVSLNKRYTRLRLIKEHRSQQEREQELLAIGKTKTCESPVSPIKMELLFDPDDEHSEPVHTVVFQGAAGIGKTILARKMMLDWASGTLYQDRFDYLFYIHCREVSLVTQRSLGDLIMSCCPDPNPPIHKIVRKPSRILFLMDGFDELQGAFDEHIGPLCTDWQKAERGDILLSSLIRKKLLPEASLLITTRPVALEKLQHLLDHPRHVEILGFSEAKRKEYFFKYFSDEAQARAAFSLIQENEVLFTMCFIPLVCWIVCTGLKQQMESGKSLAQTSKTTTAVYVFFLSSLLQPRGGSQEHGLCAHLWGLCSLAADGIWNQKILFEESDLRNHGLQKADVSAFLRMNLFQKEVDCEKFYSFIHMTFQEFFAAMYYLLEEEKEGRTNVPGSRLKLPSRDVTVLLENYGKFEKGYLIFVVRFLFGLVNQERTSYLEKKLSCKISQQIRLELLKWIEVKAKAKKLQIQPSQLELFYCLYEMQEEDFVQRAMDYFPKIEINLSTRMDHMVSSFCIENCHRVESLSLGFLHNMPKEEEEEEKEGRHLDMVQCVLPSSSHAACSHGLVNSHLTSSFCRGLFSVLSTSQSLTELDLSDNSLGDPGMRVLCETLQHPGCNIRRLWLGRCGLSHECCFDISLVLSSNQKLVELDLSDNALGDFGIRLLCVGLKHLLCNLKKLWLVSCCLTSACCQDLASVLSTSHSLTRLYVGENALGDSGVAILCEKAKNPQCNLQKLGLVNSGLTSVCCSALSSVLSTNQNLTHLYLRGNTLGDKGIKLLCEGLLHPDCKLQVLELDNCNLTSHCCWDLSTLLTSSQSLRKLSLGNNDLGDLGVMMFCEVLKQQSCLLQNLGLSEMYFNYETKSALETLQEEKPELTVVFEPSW
Assay: IL-1β TR-FRET assay (THP-1 cells differentiated to macrophages with IFN-γ, LPS primed, ATP activated; HTRF)
Conditions: THP-1 macrophages, 50 ng/mL LPS priming, compound 30 min, 20 mM ATP 2 hours
pIC50: −log10 of the molar value.
measure: pIC50

[[record]]
compound = "Cc1cc(C)c(-n2cc3sc(N[C@@H]4CCOC[C@H]4O)nc3n2)c(O)c1 [Example 167]"
assay_target = "NLRP3 inflammasome (Homo sapiens)"
measure = "pIC50"
observed_result = 6.46

[[record]]
compound = "Cc1cc(C)c(-n2cc3sc(N[C@@H]4CCCN(CCF)C4)nc3n2)c(O)c1 [Example 42]"
assay_target = "NLRP3 inflammasome (Homo sapiens)"
measure = "pIC50"
observed_result = 7.85

[[record]]
compound = "CNC(=O)N1CCC(Nc2nc3nn(-c4c(C)cc(C)cc4O)cc3s2)CC1 [Example 131]"
assay_target = "NLRP3 inflammasome (Homo sapiens)"
measure = "pIC50"
observed_result = 6.24


(1) Cc1cc(C)c(-n2cc3sc(N[C@H]4CN(C(=O)C5(C#N)CC5)C[C@@H]4F)nc3n2)c(O)c1 (racemic) [Example 125]
(2) Cc1cc(C)c(-n2cc3sc(NC[C@@H](C)OC(F)F)nc3n2)c(O)c1 [Example 172]
Request: # return whichever of 1 and 2 has the smaller pIC50 Please respond with the label that marks your chosen entry.
Response: 2
